FYI, the data here is from paper PMC12310023.

Reported CC50 values for a set of molecules
Assay: HCT-8 host cell count (Calibr)
Conditions: human, CC50, HCT-8 cells infected with Ch, Replicate 2
Just the number in nM, nothing appended.

| MOLECULE | UNITS | CC50 |
| --- | --- | --- |
| O=c1[nH]c(=O)n([C@H]2C[C@H](O)[C@@H](CO)O2)cc1F [5-fluoro-2'-deoxyuridine] | nM | 9.05 |

Incoming: Fill blank: measured CC50 of the molecule COc1ccc(C[C@H](N)C(=O)N[C@H]2[C@@H](O)[C@H](n3cnc4c(N(C)C)ncnc43)O[C@@H]2CO)cc1 [Puromycin] is ____.
Outgoing: 2810

----------
Assay: Hepatocyte stability
Settings: rat, primary hepatocytes
MEASURED_ATTRIBUTE: CLint scaled (mL/min/kg)
Just the number in mL/min/kg, nothing appended.

Incoming: Fill blank: measured CLint scaled of the molecule CC1(C)Cn2nc(-c3ccc4cc(OC5CC5)ccc4c3)c(C(N)=O)c2NC1O (stereo not shown) is ____.
Outgoing: 63.3

----------
Test: Mouse PK, Balb/c
Conditions: Balb/c, mouse, plasma, po, 30 mg/kg
MEASURED_ATTRIBUTE: bioavailability (%)
Just the number in %, nothing appended.

Incoming: Fill blank: measured bioavailability of the molecule CC1(C)Cn2nc(-c3ccc4cc(OC5CC5)ccc4c3)c(C(N)=O)c2NC1O (stereo not shown) is ____.
Outgoing: 43

----------
Assay: Liver microsome stability
Settings: human, pooled liver microsomes
MEASURED_ATTRIBUTE: CLint scaled

Incoming: Fill blank: measured CLint scaled of the compound CC1(C)Cn2nc(-c3ccc4cc(OC5CC5)ccc4c3)c(C(N)=O)c2NC1O (stereo not shown) is ____.
Outgoing: < 25 mL/min/kg

----------
Assay: Liver microsome stability
Conditions: rat, pooled liver microsomes
MEASURED_ATTRIBUTE: half-life

Incoming: Fill blank: measured half-life of the compound CC1(C)Cn2nc(-c3ccc4cc(OC5CC5)ccc4c3)c(C(N)=O)c2NC1O (stereo not shown) is ____.
Outgoing: > 2 h

----------
Biological target: HsSrC (Homo sapiens)
Sequence (P12931 whole entry): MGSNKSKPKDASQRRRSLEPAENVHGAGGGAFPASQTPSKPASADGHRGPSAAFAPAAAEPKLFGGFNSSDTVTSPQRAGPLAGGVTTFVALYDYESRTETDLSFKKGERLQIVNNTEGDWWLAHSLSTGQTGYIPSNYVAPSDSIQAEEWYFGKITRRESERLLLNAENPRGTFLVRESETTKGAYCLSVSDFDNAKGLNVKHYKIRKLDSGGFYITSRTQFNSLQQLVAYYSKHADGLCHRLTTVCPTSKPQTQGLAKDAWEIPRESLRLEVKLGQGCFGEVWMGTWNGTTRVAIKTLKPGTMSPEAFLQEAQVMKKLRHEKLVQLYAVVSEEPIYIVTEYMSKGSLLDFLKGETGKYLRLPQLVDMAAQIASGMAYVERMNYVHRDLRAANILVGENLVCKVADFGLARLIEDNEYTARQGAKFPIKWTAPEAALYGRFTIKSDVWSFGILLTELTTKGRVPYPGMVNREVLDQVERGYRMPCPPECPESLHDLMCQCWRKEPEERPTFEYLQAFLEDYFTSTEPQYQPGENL
pIC50: −log10 of the molar value.
MEASURED_ATTRIBUTE: pIC50

Incoming: Fill blank: measured pIC50 of the molecule CC1(C)Cn2nc(-c3ccc4cc(OC5CC5)ccc4c3)c(C(N)=O)c2NC1O (stereo not shown) [M2] is ____.
Outgoing: < 5.00

----------
Experiment: Liver microsome stability
Settings: monkey, pooled liver microsomes
MEASURED_ATTRIBUTE: CLint scaled (L/h/kg)
Just the number in L/h/kg, nothing appended.

Incoming: Fill blank: measured CLint scaled of the molecule CC1(C)Cn2nc(-c3ccc4cc(OC5CC5)ccc4c3)c(C(N)=O)c2NC1O (stereo not shown) [M2] is ____.
Outgoing: 3.3

----------
System: NLuc C. parvum (Calibr)
Experiment: Calibr panel, UA Nanoluc C. parvum count
Format: cell-based
Conditions: Cryptosporidium parvum, Replicate 2; read-out: UA Nanoluc C. parvum Count EC90
MEASURED_ATTRIBUTE: EC90 (nM)
Just the number in nM, nothing appended.

| COMPOUND | SYSTEM_UNDER_TEST | MEASURED_ATTRIBUTE | VALUE_OBSERVED |
| --- | --- | --- | --- |
| COc1ccc(C[C@H](N)C(=O)N[C@H]2[C@@H](O)[C@H](n3cnc4c(N(C)C)ncnc43)O[C@@H]2CO)cc1 [Puromycin] | NLuc C. parvum (Calibr) | EC90 | 1320 |
| O=c1[nH]c(=O)n([C@H]2C[C@H](O)[C@@H](CO)O2)cc1F [5-fluoro-2'-deoxyuridine] | NLuc C. parvum (Calibr) | EC90 | 117 |
| CC1(C)Cn2nc(-c3ccc4cc(OC5CC5)ccc4c3)c(C(N)=O)c2NC1O (centres unmarked) [M2] | NLuc C. parvum (Calibr) | EC90 | 1010 |

Incoming: Give recorded EC90 with NLuc C. parvum (Calibr) for the following compound: CC(C)/N=c1\cc2n(-c3ccc(Cl)cc3)c3ccccc3nc-2cc1Nc1ccc(Cl)cc1 [Clofazimine]
Outgoing: 1370

Incoming: Please answer likewise for CC(=O)Oc1ccccc1C(=O)Nc1ncc([N+](=O)[O-])s1 [Nitazoxanide]
Outgoing: 25000
